System: Gastric Acid Secretion Induced by Histamine
Protocol Summary: Inhibition effect on gastric acid secretion induced by histamine in pylorus ligated rat (subcutaneous)
Format: in vivo, male Wistar rat
Condition Notes: Rattus norvegicus; 0.2 mg/kg SC; histamine 3 mg/kg SC; average of five runs; read-out: Secretion of Gastric Acid in Rat, Inhibition Rate (%)
Description: A male Wistar rat having a body weight of about 160 g and which had not fed for 24 hours was anesthetized by an intraperitoneal dose of 1.2 g/kg of urethane. […] The wall of the stomach was rinsed with 5 ml of saline at 30 minutes intervals, and the quantity of gastric acid contained in each rinsing solution was measured by titration. […] The quantity of gastric acid secreted after the operation was measured continuously for 3 hours. […]
Note: every record was labeled by where its inhibition in vivo at 0.2 mg/kg sits among low band (below 40%), middle band (40% to below 60%), high band (60% or more)

Returns: class label. Input: Cn1nc(N)nc1NC/C=C\COc1cc(CN2CCCCC2)ccn1 [Ex. 19]
low band

Returns: class label. Input: Nc1n[nH]c(=O)nc1NC/C=C\COc1cccc(CN2CCCCC2)n1 [Ex. 49]
middle band

Returns: class label. Input: CNc1n[s+]([O-])nc1NC/C=C\COc1cccc(CN2CCCCC2)n1 (centres unmarked) [Ex. 35]
high band

Returns: class label. Input: Nc1n[s+]([O-])nc1NC/C=C/COc1cc(CN2CCCCC2)ccn1 (centres unmarked) [Ex. 9]
high band

Returns: class label. Input: Nc1nnc(NC/C=C\COc2cc(CN3CCCCC3)ccn2)s1 [Ex. 17]
high band

Returns: class label. Input: CN(C)Cc1ccnc(OC/C=C\CNc2c(N)c(=O)c2=O)c1 [Ex. 3]
middle band

Continuing:
Returns: class label. Input: CNc1c(NC/C=C\COc2cccc(CN3CCCCC3)n2)c(=O)c1=O [Ex. 33]
low band

Returns: class label. Input: CN(C)Cc1c[nH]c(NC/C=C\COc2cc(CN3CCCCC3)ccn2)nc1=O [Ex. 21]
high band

Returns: class label. Input: O=c1nc(NC/C=C\COc2cc(CN3CCCCC3)ccn2)[nH]nc1Cc1cccnc1 [Ex. 25]
middle band

Returns: class label. Input: Cn1nc(N)nc1NC/C=C\COc1cccc(CN2CCCCC2)n1 [Ex. 41]
low band

Returns: class label. Input: Nc1c(NC/C=C\COc2cccc(CN3CCCCC3)n2)c(=O)c1=O [Ex. 32]
low band

Returns: class label. Input: Cn1nc(N)c(NC/C=C\COc2cc(CN3CCCCC3)ccn2)nc1=O [Ex. 29]
high band

Returns: class label. Input: CN(C)Cc1c[nH]c(NC/C=C\COc2cccc(CN3CCCCC3)n2)nc1=O [Ex. 43]
middle band

Returns: class label. Input: Nc1n[nH]c(=O)nc1NC/C=C\COc1cc(CN2CCCCC2)ccn1 [Ex. 27]
high band

Returns: class label. Input: CNc1n[s+]([O-])nc1NC/C=C/COc1cc(CN2CCCCC2)ccn1 (centres unmarked) [Ex. 10]
middle band

Returns: class label. Input: NC1=NS(=O)(=O)N=C1NC/C=C\COc1cc(CN2CCCCC2)ccn1 [Ex. 13]
high band

Returns: class label. Input: Nc1n[s+]([O-])nc1NC/C=C\COc1cccc(CN2CCCCC2)n1 (centres unmarked) [Ex. 34]
high band
